# experimental details: Photophysical characterization: fluorescence properties and fluorescence quantum yield (SPEX-fluorolog, relative to indocyanine green)
# Assay type: physicochemical
# condition: dyes 7-14 table; formulation with Gd-complex perfluoroalkyl derivative (WO 97/26017 Ex. 33); 5 mol % of dye
Where a name gives a salt, the structure may show the parent alone.
value type: Fluorescence max. (nm)

| compound | unit abbrev | observed result |
| --- | --- | --- |
| CCN1C(=CC=CC=CC=CC2=[N+](CCCCS(=O)(=O)[O-])c3ccc(C(=O)NCCOCCC(F)(F)C(F)(F)C(F)(F)C(F)(F)C(F)(F)C(F)(F)C(F)(F)C(F)(F)F)cc3C2(C)C)C(C)(C)c2ccccc21 [Dye 12, sodium salt] | nm | 788 |
| CC1(C)C(=CC=CC=CC2=[N+](CCCCS(=O)(=O)[O-])c3ccc(C(=O)N(CCOCCC(F)(F)C(F)(F)C(F)(F)C(F)(F)C(F)(F)C(F)(F)C(F)(F)C(F)(F)F)CC(O)CO)cc3C2(C)C)N(CCCCS(=O)(=O)[O-])c2ccccc21.[Na+] (stereo not shown) | nm | 685 |
| CC1(C)C(=CC=CC=CC=CC2=[N+](CCCCS(=O)(=O)[O-])c3ccc(C(=O)N(CCOCCC(F)(F)C(F)(F)C(F)(F)C(F)(F)C(F)(F)C(F)(F)C(F)(F)C(F)(F)F)CC(O)CO)cc3C2(C)C)N(CCCCS(=O)(=O)[O-])c2ccccc21.[Na+] (stereo not shown) | nm | 788 |
| CCN1C(=CC=CC=CC2=[N+](CCCCS(=O)(=O)[O-])c3ccc(C(=O)NCCOCCC(F)(F)C(F)(F)C(F)(F)C(F)(F)C(F)(F)C(F)(F)C(F)(F)C(F)(F)F)cc3C2(C)C)C(C)(C)c2ccccc21 [Dye 11, sodium salt] | nm | 683 |

Reference for the values: patent US6447749B1
